Assay: Solubility of apilimod vs pH in 0.1N HCl and Britton-Robinson buffers
Format: physicochemical
Details: Britton-Robinson buffer, aqueous buffer, thermodynamic from solid; BRB pH 3, medium pH 2.88, prep. 2.8 mg/mL, room temperature, Day 3 pH 3.61; read-out: Conc Day 3
Measured metric: solubility thermodynamic at 3 days (µg/mL)
Value expressed in µg/mL; do not type the unit.

Query block: Can you share its solubility thermodynamic at 3 days? I mean this compound: "Cc1cccc(/C=N/Nc2cc(N3CCOCC3)nc(OCCc3ccccn3)n2)c1"
Result block: 17.3

###

Assay: Solubility of apilimod vs pH in 0.1N HCl and Britton-Robinson buffers
Format: physicochemical
Conditions: 0.1N HCl, pH 1, simulated gastric fluid, thermodynamic from solid; pH of approximately 1; read-out: solubility
Measured metric: solubility at 3 days

Query block: Need solubility at 3 days of Cc1cccc(/C=N/Nc2cc(N3CCOCC3)nc(OCCc3ccccn3)n2)c1 [Apilimod] , thanks.
Result block: > 10000 µg/mL

###

Experiment: Solubility of apilimod vs pH in 0.1N HCl and Britton-Robinson buffers
Assay type: physicochemical
Details: Britton-Robinson buffer, pH 7.9, aqueous buffer, thermodynamic from solid; BRB pH 8, medium pH 7.90, prep. 2.8 mg/mL, room temperature, Day 3 pH 8.01; read-out: Conc Day 3
Measured metric: solubility thermodynamic at 3 days

Query block: Using the record for "Cc1cccc(/C=N/Nc2cc(N3CCOCC3)nc(OCCc3ccccn3)n2)c1" , report its solubility thermodynamic at 3 days.
Result block: < 0.1 µg/mL

###

Assay: Solubility of apilimod vs pH in 0.1N HCl and Britton-Robinson buffers
Format: physicochemical
Conditions: Britton-Robinson buffer, aqueous buffer, thermodynamic from solid; BRB pH 6, medium pH 6.15, prep. 2.7 mg/mL, room temperature, Day 3 pH 6.18; read-out: Conc Day 3
Measured metric: solubility thermodynamic at 3 days

Query block: Would you mind telling me what solubility thermodynamic at 3 days value was observed for "Cc1cccc(/C=N/Nc2cc(N3CCOCC3)nc(OCCc3ccccn3)n2)c1" ?
Result block: < 0.1 µg/mL

###

Experiment: Solubility of apilimod vs pH in 0.1N HCl and Britton-Robinson buffers
Format: physicochemical
Details: Britton-Robinson buffer, aqueous buffer, thermodynamic from solid; BRB pH 5, medium pH 5.04, prep. 2.8 mg/mL, room temperature, Day 3 pH 5.08; read-out: Conc Day 3
Measured metric: solubility thermodynamic at 3 days

Query block: Param item = Cc1cccc(/C=N/Nc2cc(N3CCOCC3)nc(OCCc3ccccn3)n2)c1 [Apilimod] ; retrieve measured solubility thermodynamic at 3 days.
Result block: 0.2 µg/mL

###

Experiment: Solubility of apilimod vs pH in 0.1N HCl and Britton-Robinson buffers
Assay type: physicochemical
Settings: Britton-Robinson buffer, aqueous buffer, thermodynamic from solid; BRB pH 2, medium pH 1.99, prep. 11 mg/mL, room temperature, Day 3 pH 2.75; read-out: Conc Day 3
Measured metric: solubility thermodynamic at 3 days (µg/mL)
Output spec: scalar in µg/mL, unitless text.

Query block: What does the data say about its solubility thermodynamic at 3 days? Entry: "Cc1cccc(/C=N/Nc2cc(N3CCOCC3)nc(OCCc3ccccn3)n2)c1"
Result block: 137

###

Test: Solubility of apilimod vs pH in 0.1N HCl and Britton-Robinson buffers
Type: physicochemical
Conditions: Britton-Robinson buffer, aqueous buffer, thermodynamic from solid; BRB pH 4, medium pH 4.11, prep. 2.8 mg/mL, room temperature, Day 3 pH 4.22; read-out: Conc Day 3
Measured metric: solubility thermodynamic at 3 days

Query block: Item under review: Cc1cccc(/C=N/Nc2cc(N3CCOCC3)nc(OCCc3ccccn3)n2)c1 [Apilimod] . Reported solubility thermodynamic at 3 days?
Result block: 2.3 µg/mL
